B1: library; a variant is named by its letters at N, in order (parent)
chain: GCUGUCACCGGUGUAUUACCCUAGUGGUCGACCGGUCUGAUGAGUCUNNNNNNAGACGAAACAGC

Variants of: B1
Test: normalized RNA/DNA level with ligand (relative to sTRSVctl = 100) (log10 (% of sTRSVctl)); ligand: hypoxanthine (xanthine aptamer); higher = less ribozyme self-cleavage, higher mRNA level
Details: ligand concentration (+) RNA-Seq: 5 mM, HEK293T, reporter: mCherry (pCS4076), ligand present: yes
reported metric: normalized RNA/DNA level with ligand (log10)
Answers are plain numbers.

variant string: ACAUCU
number: 1.97
//
variant string: UGUUGU
number: 1.91
//
variant string: GGCUUC
number: 1.99
//
variant string: UUGCCC
number: 1.99
//
variant string: CAGAUG
number: 1.94
//
variant string: UUGUCA
number: 1.99

For every record below, what is its normalized RNA/DNA level with ligand (log10)?
1. UCUUCC
2. GGGCAC
3. GAUAGG
4. CACCCU
5. GGGCUC

2.02
1.94
1.74
1.96
1.96
